- Assay Comment: Cell Counting Kit-8 (CCK-8) cell viability assay
- Assay type: cell-based
- Condition Info: T30 5 uM + NBP-14, 10th of 10 values; concentration unclear; read-out: cell viability, T30 + NBP-14
Residues, ends and D or L forms follow the SMILES beside them.
Value Kind: viability (%)
One number for each entry, in %.

Prompt line: Return viability (reported value) for this molecule: CSCC[C@@H]1NC(=O)[C@H](Cc2ccc(O)cc2)NC(=O)[C@H](CO)NC(=O)[C@H](CO)NC(=O)[C@H](Cc2c[nH]c3ccccc23)NC(=O)[C@H](CCCNC(=N)N)NC(=O)[C@H](Cc2c[nH]cn2)NC(=O)[C@H](Cc2ccccc2)NC(=O)[C@H](CCC(=O)O)NC(=O)[C@H](C)NC(=O)[C@H](CCCCN)NC(=O)[C@H](Cc2c[nH]c3ccccc23)NC(=O)[C@H](Cc2c[nH]cn2)NC(=O)[C@H](C(C)C)NC1=O [Cyclic T14] (cyclo(AEFHRWSSYMVHWK))
Response line: 108

###

- Assay Comment: Cell Counting Kit-8 (CCK-8) cell viability assay
- Format: cell-based
- Condition Info: T30 5 uM + NBP-14 7 nM (2nd of 10 values); read-out: cell viability, T30 + NBP-14
Residues, ends and D or L forms follow the SMILES beside them.
Value Kind: viability (%)
Give bare numbers, in %.

Prompt line: Return viability (reported value) for this compound: CSCC[C@@H]1NC(=O)[C@H](Cc2ccc(O)cc2)NC(=O)[C@H](CO)NC(=O)[C@H](CO)NC(=O)[C@H](Cc2c[nH]c3ccccc23)NC(=O)[C@H](CCCNC(=N)N)NC(=O)[C@H](Cc2c[nH]cn2)NC(=O)[C@H](Cc2ccccc2)NC(=O)[C@H](CCC(=O)O)NC(=O)[C@H](C)NC(=O)[C@H](CCCCN)NC(=O)[C@H](Cc2c[nH]c3ccccc23)NC(=O)[C@H](Cc2c[nH]cn2)NC(=O)[C@H](C(C)C)NC1=O [Cyclic T14] (cyclo(AEFHRWSSYMVHWK))
Response line: 67

###

- Assay Comment: Partition coefficient (Log P), shake-tube method, 1-octanol/water
- Type: physicochemical
- Condition Info: room temperature
Residues, ends and D or L forms follow the SMILES beside them.
Value Kind: logP
Answers are plain numbers.

Prompt line: Return logP (reported value) for this compound: CSCC[C@@H]1NC(=O)[C@H](Cc2ccc(O)cc2)NC(=O)[C@H](CO)NC(=O)[C@H](CO)NC(=O)[C@H](Cc2c[nH]c3ccccc23)NC(=O)[C@H](CCCNC(=N)N)NC(=O)[C@H](Cc2c[nH]cn2)NC(=O)[C@H](Cc2ccccc2)NC(=O)[C@H](CCC(=O)O)NC(=O)[C@H](C)NC(=O)[C@H](CCCCN)NC(=O)[C@H](Cc2c[nH]c3ccccc23)NC(=O)[C@H](Cc2c[nH]cn2)NC(=O)[C@H](C(C)C)NC1=O [Cyclic T14] (cyclo(AEFHRWSSYMVHWK))
Response line: -0.59

###

- Assay Comment: Cell Counting Kit-8 (CCK-8) cell viability assay
- Type: cell-based
- Condition Info: T30 5 uM + NBP-14 20 nM (5th of 10 values); read-out: cell viability, T30 + NBP-14
Residues, ends and D or L forms follow the SMILES beside them.
Value Kind: viability (%)
One number for each entry, in %.

Prompt line: Return viability (reported value) for this compound: CSCC[C@@H]1NC(=O)[C@H](Cc2ccc(O)cc2)NC(=O)[C@H](CO)NC(=O)[C@H](CO)NC(=O)[C@H](Cc2c[nH]c3ccccc23)NC(=O)[C@H](CCCNC(=N)N)NC(=O)[C@H](Cc2c[nH]cn2)NC(=O)[C@H](Cc2ccccc2)NC(=O)[C@H](CCC(=O)O)NC(=O)[C@H](C)NC(=O)[C@H](CCCCN)NC(=O)[C@H](Cc2c[nH]c3ccccc23)NC(=O)[C@H](Cc2c[nH]cn2)NC(=O)[C@H](C(C)C)NC1=O [Cyclic T14] (cyclo(AEFHRWSSYMVHWK))
Response line: 79

###

- Assay Comment: Cell Counting Kit-8 (CCK-8) cell viability assay
- Assay type: cell-based
- Condition Info: T30 5 uM + NBP-14, 8th of 10 values; concentration unclear; read-out: cell viability, T30 + NBP-14
- Description: A Cell Counting Kit-8 (CCK-8) was used as an improvement of the SRB technique used before. By utilizing the highly water-soluble tetrazolium salt WST-8, CCK-8 produces a water-soluble formazan dye upon reduction in the presence of an electron carrier. […] Subsequently, 100 μl of growth medium is removed and 10 μl of CCK-8 (Cell Counting Kit-8) solution is added. The plate is incubated for 2 hours in the incubator and then placed in the absorbance plate reader. The absorbance must be measured at 450 nm.
Residues, ends and D or L forms follow the SMILES beside them.
Value Kind: viability (%)
Numbers only, in %.

Prompt line: Return viability (reported value) for this molecule: CSCC[C@@H]1NC(=O)[C@H](Cc2ccc(O)cc2)NC(=O)[C@H](CO)NC(=O)[C@H](CO)NC(=O)[C@H](Cc2c[nH]c3ccccc23)NC(=O)[C@H](CCCNC(=N)N)NC(=O)[C@H](Cc2c[nH]cn2)NC(=O)[C@H](Cc2ccccc2)NC(=O)[C@H](CCC(=O)O)NC(=O)[C@H](C)NC(=O)[C@H](CCCCN)NC(=O)[C@H](Cc2c[nH]c3ccccc23)NC(=O)[C@H](Cc2c[nH]cn2)NC(=O)[C@H](C(C)C)NC1=O [Cyclic T14] (cyclo(AEFHRWSSYMVHWK))
Response line: 78.1

###

- Assay Comment: Sulforhodamine B (SRB) cell viability assay
- Assay type: cell-based
- Condition Info: cell viability, β-amyloid combined with Cyclic T14, β-Amyloid (10 μM) + Cyclic T14 0.5 nM, 1 hour
Residues, ends and D or L forms follow the SMILES beside them.
Value Kind: viability (%)
Answers are plain numbers, in %.

Prompt line: Return viability (reported value) for this molecule: CSCC[C@@H]1NC(=O)[C@H](Cc2ccc(O)cc2)NC(=O)[C@H](CO)NC(=O)[C@H](CO)NC(=O)[C@H](Cc2c[nH]c3ccccc23)NC(=O)[C@H](CCCNC(=N)N)NC(=O)[C@H](Cc2c[nH]cn2)NC(=O)[C@H](Cc2ccccc2)NC(=O)[C@H](CCC(=O)O)NC(=O)[C@H](C)NC(=O)[C@H](CCCCN)NC(=O)[C@H](Cc2c[nH]c3ccccc23)NC(=O)[C@H](Cc2c[nH]cn2)NC(=O)[C@H](C(C)C)NC1=O [Cyclic T14] (cyclo(AEFHRWSSYMVHWK))
Response line: 88.5

###

- Assay Comment: Sulforhodamine B (SRB) cell viability assay
- Assay type: cell-based
- Condition Info: cell viability, β-amyloid combined with Cyclic T14, β-Amyloid (10 μM) + Cyclic T14 10 nM, 1 hour
Residues, ends and D or L forms follow the SMILES beside them.
Value Kind: viability

Prompt line: Return viability (reported value) for this compound: CSCC[C@@H]1NC(=O)[C@H](Cc2ccc(O)cc2)NC(=O)[C@H](CO)NC(=O)[C@H](CO)NC(=O)[C@H](Cc2c[nH]c3ccccc23)NC(=O)[C@H](CCCNC(=N)N)NC(=O)[C@H](Cc2c[nH]cn2)NC(=O)[C@H](Cc2ccccc2)NC(=O)[C@H](CCC(=O)O)NC(=O)[C@H](C)NC(=O)[C@H](CCCCN)NC(=O)[C@H](Cc2c[nH]c3ccccc23)NC(=O)[C@H](Cc2c[nH]cn2)NC(=O)[C@H](C(C)C)NC1=O [Cyclic T14] (cyclo(AEFHRWSSYMVHWK))
Response line: 102%

###

- Assay Comment: Cell Counting Kit-8 (CCK-8) cell viability assay
- Type: cell-based
- Condition Info: T30 5 uM; read-out: decrease of cell viability
No end group written: not given here.
Value Kind: cytotoxicity (%)
Answers are plain numbers, in %.

Prompt line: Return cytotoxicity (reported value) for this sequence: KAEFHRWSSYMVHWKNQFDHYSKQDRCSDL [T30, reference compound]
Response line: 25

###

- Assay Comment: Sulforhodamine B (SRB) cell viability assay
- Assay type: cell-based
- Condition Info: rat, PC12 cells (wild-type), Cyclic T14 alone 100 nM, 1 hour, PC12
- Method: Wild-type PC12 cell were provided by Sigma-Aldrich (St. Louis, MO). […] The cell viability assay used was the sulforhodamine B (SRB) colorimetric assay for toxicity screening. […] Cell concentration was determined by the Fuchs-Rosenthal chamber. […] Measurement of the absorbance took place in a VMax Kinetic Microplate Reader (Molecular Devices) at 490 nm.
Residues, ends and D or L forms follow the SMILES beside them.
Value Kind: viability at 1 h, 0.1 µM (%)
One number for each entry, in %.

Prompt line: Return viability at 1 h, 0.1 µM (reported value) for this compound: CSCC[C@@H]1NC(=O)[C@H](Cc2ccc(O)cc2)NC(=O)[C@H](CO)NC(=O)[C@H](CO)NC(=O)[C@H](Cc2c[nH]c3ccccc23)NC(=O)[C@H](CCCNC(=N)N)NC(=O)[C@H](Cc2c[nH]cn2)NC(=O)[C@H](Cc2ccccc2)NC(=O)[C@H](CCC(=O)O)NC(=O)[C@H](C)NC(=O)[C@H](CCCCN)NC(=O)[C@H](Cc2c[nH]c3ccccc23)NC(=O)[C@H](Cc2c[nH]cn2)NC(=O)[C@H](C(C)C)NC1=O [Cyclic T14] (cyclo(AEFHRWSSYMVHWK))
Response line: 98.8

Data origin, for the record: patent US12139729B2
